assay: In vivo pharmacokinetic study, intravenous bolus; details: male, Hans Wistar; rat, 1 mg/kg intravenous bolus, brain; read-out: Cl Brain
Below, each of the molecules is paired with its reported clearance value.

{"columns": ["molecule", "clearance"],
 "data": [
  ["COc1ccc(Cl)c(C(=O)NCC23CC4CC(CC(F)(C4)C2)C3)c1", "57.3 mL/min/kg"],
  ["COc1ccc(Cl)c(C(=O)NCC23CC4CC(F)(CC(F)(C4)C2)C3)c1", "76.9 mL/min/kg"],
  ["COc1ccc(Cl)c(C(=O)NCC23CC4(F)CC(F)(CC(F)(C4)C2)C3)c1", "43.2 mL/min/kg"]
]}

Consider now this further molecule.
Q. Look up clearance: COc1ccc(Cl)c(C(=O)NCC23CC4CC(CC(C4)C2)C3)c1 [Compound 31, reference compound]
A. 67.8 mL/min/kg

----------
assay: In vivo pharmacokinetic study, intravenous bolus; details: male, Hans Wistar; rat, 1 mg/kg intravenous bolus, brain; read-out: Vd Brain
measure: Vd
Remember to quote the unit after the number.

{"columns": ["compound", "Vd"],
 "data": [
  ["COc1ccc(Cl)c(C(=O)NCC23CC4(F)CC(F)(CC(F)(C4)C2)C3)c1", "2.1 L/kg"]
]}

Q. Look up Vd: `COc1ccc(Cl)c(C(=O)NCC23CC4CC(F)(CC(F)(C4)C2)C3)c1`
A. 1.54 L/kg

Q. Look up Vd: `COc1ccc(Cl)c(C(=O)NCC23CC4CC(CC(F)(C4)C2)C3)c1`
A. 0.92 L/kg

Q. Look up Vd: COc1ccc(Cl)c(C(=O)NCC23CC4CC(CC(C4)C2)C3)c1 [Compound 31, reference compound]
A. 0.77 L/kg

----------
tested on: P-gp (human MDR1); experiment: MDCK P-glycoprotein bidirectional permeability assay; assay type: in vitro ADME, canine; conditions: dog, apical to basolateral, 30 minute, 37° C.
Below, each of the compounds is paired with its reported Papp A→B at 30 min, 10 μM value.
Give your result in ×10⁻⁶ cm/s as a bare value.

{"columns": ["compound", "Papp A→B at 30 min, 10 μM, ×10⁻⁶ cm/s"],
 "data": [
  ["COc1ccc(Cl)c(C(=O)NCC23CC4CC(F)(CC(F)(C4)C2)C3)c1 [Compound 2]", 40],
  ["COc1ccc(Cl)c(C(=O)NCC23CC4CC(CC(C4)C2)C3)c1 [Compound 31, reference compound]", 40.9],
  ["COc1ccc(Cl)c(C(=O)NCC23CC4(F)CC(F)(CC(F)(C4)C2)C3)c1 [Compound 1]", 30.3]
]}

Q. Look up Papp A→B at 30 min, 10 μM: COc1ccc(Cl)c(C(=O)NCC23CC4CC(CC(F)(C4)C2)C3)c1 [Compound 3]
A. 28.1

----------
Below, each of the compounds is paired with its reported pIC50 value.
Biological target: hP2X7R (Homo sapiens)
Sequence (Q99572 1-595): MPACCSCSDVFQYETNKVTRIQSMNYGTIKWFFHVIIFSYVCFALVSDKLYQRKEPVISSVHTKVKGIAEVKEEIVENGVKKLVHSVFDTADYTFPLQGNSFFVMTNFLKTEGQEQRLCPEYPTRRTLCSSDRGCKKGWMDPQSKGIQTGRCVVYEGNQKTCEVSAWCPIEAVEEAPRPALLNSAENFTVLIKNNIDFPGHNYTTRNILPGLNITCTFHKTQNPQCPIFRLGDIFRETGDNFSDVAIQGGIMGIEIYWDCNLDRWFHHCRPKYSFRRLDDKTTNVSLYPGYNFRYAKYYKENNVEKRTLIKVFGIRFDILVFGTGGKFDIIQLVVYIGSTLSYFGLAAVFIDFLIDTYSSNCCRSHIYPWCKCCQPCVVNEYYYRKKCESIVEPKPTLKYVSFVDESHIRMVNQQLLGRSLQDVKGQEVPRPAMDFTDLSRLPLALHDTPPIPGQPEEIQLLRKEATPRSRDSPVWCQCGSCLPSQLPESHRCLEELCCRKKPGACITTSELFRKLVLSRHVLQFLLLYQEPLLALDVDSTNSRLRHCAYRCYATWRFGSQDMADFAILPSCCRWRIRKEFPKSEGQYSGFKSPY
Assay: Calcium influx assay in HEK-hP2X7 cells
Assay type: cell-based
Conditions: HEK cells expressing hP2X7R, BzATP 100 μM; mean ± standard deviation, n >3
Reminder that pIC50 is minus the log10 of a molar concentration.

{"columns": ["compound", "tested target", "pIC50"],
 "data": [
  ["COc1ccc(Cl)c(C(=O)NCC23CC4CC(F)(CC(F)(C4)C2)C3)c1 [Compound 2]", "hP2X7R (Homo sapiens)", 8.00]
]}

Q. Look up pIC50: COc1ccc(Cl)c(C(=O)NCC23CC4CC(CC(F)(C4)C2)C3)c1 [Compound 3]
A. 7.76
